ASSAY_PROTOCOL: Primary qHTS for inhibitors of nuclear receptor binding SET domain protein 2 (NSD2) in an isogenic RCH-ACV NSD2 p.E1099K mutant (9B) (AID 1645876); note: nearly all actives have a fitted effect of over 70% in size
CONDITION_DETAILS: RCH-ACV (leukaemia line) NSD2 E1099K (9B) viability, CellTiter-Glo, 72 h; series mostly up to 44.9 µM
Inconclusive results are not listed. Activity calls are given as the source filed them. Calls come from the whole dose curve; as a rule, active = well fitted inhibition curve with a large enough effect; inconclusive = small, poorly fitted or top-dose-only effect; inactive = flat fitted curve, though single readings scatter.
Bench note: report the call from active, inactive

Test call, this compound: Cc1sc2c(c1C)C(c1ccc(Cl)cc1)=N[C@@H](CC(=O)OC(C)(C)C)c1nnc(C)n1-2
active

Test call, this compound: O=C(O)P(=O)(O)O
inactive

Test call, this compound: COc1ccc(Cc2nccc3cc(OC)c(OC)cc23)cc1OC
active
